FYI, the data here is from ChEMBL document CHEMBL1275429.

- assayProcedure: AUC (0 to infinity) in neutropenic BALB/cAnNCr mouse infected with Staphylococcus aureus at 1 mg/kg, sc administered as single dose after 6 hrs of infection
- Assay type: ADME, organism-based
- Design: time infinity, dose 1 mg/kg, route subcutaneous
- conditionInfo: plasma
testReadout: AUC(0-inf) (ng·h/mL)
Please give a number only; it is taken to be in ng·h/mL.

The recorded AUC(0-inf) for Nc1nc(/C(=N/O)C(=O)N[C@@H]2C(=O)N3C(C(=O)O)=C(/C=C4\CCN([C@@H]5CCNC5)C4=O)CS[C@H]23)ns1 [CEFTOBIPROLE] is 1840

====

- assayProcedure: Elimination half life in neutropenic BALB/cAnNCr mouse infected with Staphylococcus aureus at 1 mg/kg, sc administered as single dose after 6 hrs of infection
- Assay type: ADME, organism-based
- Design: dose 1 mg/kg, route subcutaneous
- conditionInfo: in vivo
testReadout: half-life (min)
Please give a number only; it is taken to be in min.

The recorded half-life for Nc1nc(/C(=N/O)C(=O)N[C@@H]2C(=O)N3C(C(=O)O)=C(/C=C4\CCN([C@@H]5CCNC5)C4=O)CS[C@H]23)ns1 is 15

====

- assayProcedure: Elimination half life in neutropenic BALB/cAnNCr mouse infected with Staphylococcus aureus at 10 mg/kg, sc administered as single dose after 6 hrs of infection
- Type: ADME, organism-based
- Parameters: dose 10 mg/kg, route subcutaneous
- conditionInfo: in vivo
testReadout: half-life
Units required after the number.

The recorded half-life for Nc1nc(/C(=N/O)C(=O)N[C@@H]2C(=O)N3C(C(=O)O)=C(/C=C4\CCN([C@@H]5CCNC5)C4=O)CS[C@H]23)ns1 is 25.2 min

====

- assayProcedure: Tmax in neutropenic BALB/cAnNCr mouse infected with Staphylococcus aureus at 25 mg/kg, sc administered as single dose after 6 hrs of infection
- Type: ADME, organism-based
- Design: dose 25 mg/kg, route subcutaneous
- conditionInfo: in vivo
testReadout: Tmax (min)
Please give a number only; it is taken to be in min.

The recorded Tmax for Nc1nc(/C(=N/O)C(=O)N[C@@H]2C(=O)N3C(C(=O)O)=C(/C=C4\CCN([C@@H]5CCNC5)C4=O)CS[C@H]23)ns1 is 28.2

====

- Tested on: Staphylococcus aureus
- assayProcedure: Antimicrobial activity against community acquired methicillin-resistant Staphylococcus aureus 146 by broth microdilution method
- Type: functional
testReadout: MIC (µg/mL)
Please give a number only; it is taken to be in µg/mL.

Worked examples follow.
CCC[C@@H]1C[C@@H](C(=O)N[C@@H]([C@H]2O[C@H](SC)[C@H](O)[C@@H](O)[C@H]2O)[C@H](C)Cl)N(C)C1 : 0.25
Nc1nc(/C(=N/O)C(=O)N[C@@H]2C(=O)N3C(C(=O)O)=C(/C=C4\CCN([C@@H]5CCNC5)C4=O)CS[C@H]23)ns1 : 2
C[C@H]1COc2c(N3CCN(C)CC3)c(F)cc3c(=O)c(C(=O)O)cn1c23.C[C@H]1COc2c(N3CCN(C)CC3)c(F)cc3c(=O)c(C(=O)O)cn1c23.O : 8

The recorded MIC for C[C@H]1c2cccc(O)c2C(=O)C2=C(O)[C@]3(O)C(=O)C(C(N)=O)=C(O)[C@@H](N(C)C)[C@@H]3[C@@H](O)[C@@H]21.O is 2
